# study target: SaMTAN (5′-methylthioadenosine/S-adenosylhomocysteine nucleosidase) (Staphylococcus aureus)
# Sequence (Q99TQ0 whole entry): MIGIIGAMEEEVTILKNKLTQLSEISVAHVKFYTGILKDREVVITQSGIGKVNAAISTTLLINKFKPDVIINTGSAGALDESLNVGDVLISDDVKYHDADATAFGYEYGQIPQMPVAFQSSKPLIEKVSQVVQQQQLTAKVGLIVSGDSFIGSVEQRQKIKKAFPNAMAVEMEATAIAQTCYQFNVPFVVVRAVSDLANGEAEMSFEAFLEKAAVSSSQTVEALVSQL
# protocol: ITC
property measured: pKd
Hey, just a heads up that pKd is the negative log base 10 of the concentration in molar.

# return recorded pKd for input CSC[C@H]1CN(Cc2c[nH]c3c(N)ncnc23)C[C@@H]1O
8.05

Data credit: paper PMC3977580
